The values you see were collected from patent US20260226084A1.

Provide the reported pIC50 of each item.
test system: Pa16c cells; test: Pa16c Cell Proliferation Assay; format: cell-based; conditions: Table 2, read-out: Inhibition of cell proliferation in Pa16c (IC50 class)
pIC50: −log10 of the molar value.

{"columns": ["TEST_SMILES", "MEASURED_ENDPOINT", "ASSAY_RESULT"],
 "data": [
  ["Cc1ccc(NC(=O)c2cncc(C(F)(F)F)n2)cc1-c1ccnc(-c2ccnc(NC(=O)C3CC3)c2)c1", "pIC50", "5.00 to 6.00"],
  ["Cc1ccc(NC(=O)c2cc(C(C)(C)F)cnn2)cc1-c1ccnc(-c2ccnc(NC(=O)C3CC3)c2)c1", "pIC50", "6.30 to 7.00"],
  ["Cc1ccc(NC(=O)c2cc(C(C)(F)F)cnn2)cc1-c1ccnc(-c2cnsc2)c1", "pIC50", "6.00 to 6.30"]
]}

(Q) Recorded pIC50 for CNc1cc(-c2cc(-c3cc(NC(=O)c4cc(C(F)(F)F)cnn4)ccc3C)ccn2)ccn1 , please?
(A) 6.30 to 7.00
